# System: HepG2 cells
# protocol_notes: Test Example 2: inhibition of apolipoprotein B secretion from HepG2 cells, ELISA (also used for metabolites in Test Example 8)
# Type: cell-based
# measurement_parameters: Homo sapiens, 24 hours, apo B in supernatant by ELISA, read-out: Test Example 2 Inhibition of apo B secretion IC50
observable: IC50 (nM)

{"compound": "CCOC(=O)C(COC(=O)Cc1ccc(NC(=O)c2ccccc2-c2ccc(C(F)(F)F)cc2)c(-c2nc(C)cs2)c1)(C(=O)OCC)c1ccccc1", "measurement_units": "nM", "IC50": 8.77}
{"compound": "CCOC(=O)C(COC(=O)Cc1ccc(OC(=O)c2ccccc2-c2ccc(C(F)(F)F)cc2)c(C(=O)N(C)C)c1)(C(=O)OCC)c1ccccc1", "measurement_units": "nM", "IC50": 81}
{"compound": "CCNC(=O)C(COC(=O)Cc1ccc(NC(=O)c2ccccc2-c2ccc(Cl)c(Cl)c2)cc1)(C(=O)NCC)c1ccccc1", "measurement_units": "nM", "IC50": 120}
{"compound": "CCCNC(=O)C(CCOC(=O)Cc1cccc(NC(=O)c2ccccc2-c2ccc(C(F)(F)F)cc2)c1)(C(=O)NCCC)c1ccccc1", "measurement_units": "nM", "IC50": 5}
{"compound": "CCCNC(=O)C(COC(=O)Cc1ccc(NC(=O)c2ccccc2-c2ccc(C(F)(F)F)cc2)cc1)(C(=O)NCCC)c1ccccc1", "measurement_units": "nM", "IC50": 6.9}

[I] O=C(OCCC(C(=O)NCC(F)(F)F)(c1ccccc1)c1ccccc1)c1ccc(NC(=O)c2ccccc2-c2ccc(C(F)(F)F)cc2)cc1
[II] CCOC(=O)C(COC(=O)Cc1ccc(NC(=O)c2ccccc2-c2ccc(C(F)(F)F)cc2)c(C(=O)N(C)C)c1)(C(=O)OCC)c1ccc(C)cc1
[III] CCNC(=O)C(COC(=O)Cc1ccc(NC(=O)c2ccccc2-c2ccc(C(F)(F)F)cc2)c(O)c1)(C(=O)NCC)c1ccccc1
[IV] CCNC(=O)C(CCOC(=O)Cc1ccc(NC(=O)c2ccccc2-c2ccc(C(F)(F)F)cc2)c(C(=O)N(C)C)c1)(C(=O)NCC)c1ccccc1
Order the entries by their reported IC50, beginning at the minimum. Answer format: the labels, in the requested order.
IV, II, III, I
(IV: 0.29 nM, II: 2.34 nM, III: 4.2 nM, I: 630 nM)

[1] CCOC(=O)C(COC(=O)Cc1ccc(NC(=O)c2ccccc2-c2ccc(C(F)(F)F)cc2)c(C(=O)N(C)C)c1)(C(=O)OCC)c1cccc(C)c1
[2] CCNC(=O)C(COC(=O)Cc1ccc(NC(=O)c2ccccc2-c2ccc(C(F)(F)F)cc2)c(C(=O)N2CCCCC2)c1)(C(=O)NCC)c1ccccc1
Could you please tell me which of these two has the higher IC50: 1 or 2 ? Refer to your chosen entry by its label in the reply.
2
(2: 2.7 nM, 1: 0.91 nM)

The reported numbers originate from patent US7625948B2.
